System: WT-SOD1 and mutant SOD1-GST (A4V, G37R, G85R, G93A)
RUN DESCRIPTION: ELISA compound screening for binding inhibitor between WT-SOD1 and mutant SOD1
Set-up: species or system human
SETUP CONDITIONS: Table 1; compounds at final concentration of 50 μM
PROPERTY LABEL: ELISA

{"columns": ["ITEM SMILES", "RESULT"],
 "data": [
  ["CC(=O)Oc1cccc(/C=C/C(=O)O[C@H]2Cc3cc4ccc(=O)oc4cc3OC2(C)C)c1", "Effect ○"],
  ["COc1ccc(/C=C/C(=O)O[C@H]2Cc3cc4ccc(=O)oc4cc3OC2(C)C)cc1OC", "Effect ○"],
  ["CC1(C)Oc2cc3oc(=O)ccc3cc2C[C@@H]1OC(=O)/C=C/c1cccc(O)c1", "Effect ○"],
  ["COc1cc(/C=C/CO[C@H]2Cc3cc4ccc(=O)oc4cc3OC2(C)C)ccc1O", "Effect ○"],
  ["COc1cc(/C=C/CO[C@H]2Cc3cc4ccc(=O)oc4cc3OC2(C)C)ccc1[N+](=O)[O-]", "Effect ○"],
  ["COc1cc(/C=C/C(=O)O[C@H]2Cc3cc4ccc(=O)oc4cc3OC2(C)C)ccc1O", "Effect ○"],
  ["COc1cc(CCC(=O)O[C@H]2Cc3cc4ccc(=O)oc4cc3OC2(C)C)ccc1OC(C)=O", "Effect x"],
  ["COc1cc(CCC(=O)O[C@H]2Cc3cc4ccc(=O)oc4cc3OC2(C)C)ccc1O", "Effect x"]
]}

---

Tested on: WT-SOD1 and mutant SOD1-GST (A4V, G37R, G85R, G93A)
RUN DESCRIPTION: ELISA compound screening for binding inhibitor between WT-SOD1 and mutant SOD1
Parameters: species or system human
SETUP CONDITIONS: Table 1; compounds at final concentration of 50 μM

{"columns": ["COMPOUND", "ELISA"],
 "data": [
  ["CC1(C)Oc2cc3oc(=O)ccc3cc2C[C@@H]1OC(=O)/C=C/c1ccncc1 [SNU-C9]", "Effect x"],
  ["COc1ccc(CCC(=O)O[C@H]2Cc3cc4ccc(=O)oc4cc3OC2(C)C)cc1OC [SNU-C7]", "Effect x"]
]}
